measured_on: T1, recombinant human endotrophin (77 amino acids at the carboxy-terminal of the COL6α3 chain, HEK293-expressed, … (human, UniProt P12111 3101-3177))
T1 construct: the His-tag was removed by enterokinase, leaving the 77 amino acid endotrophin free of tags; also called ETP; recombinant endotrophin protein
protocol: ELISA titration on plate-coated recombinant endotrophin, 4-parameter fit
readout_kind: EC50
Your answer should be a number followed by the unit of measure.

[[record]]
binder = "ETP-mAb10 (antibody, V domains shown, Rabbit monoclonal) VH: QSLEESGGGLVQPEGSLTLTCTASGFSFSRGDYMCWVRQAPGKGLEWIGWIDVGRDNDSYYATWAKGRFSISKTSSTTVTLQMTSLTVADTATYFCARDLGFDTNLWGPGTLVTVSS VL: ELDMTQTPASVSAAVGGTVTINCQASQNINSWLSWYQQKPGQPPKLLIYQASKLASGVPSRLKGSGSGTQFSLTISDLECADGATYYCQSYDYRSSGNGGNVFGGGTEVEIK"
readout_kind = "EC50"
value = "0.142 µg/mL"


Now for another entry.
Challenge: What does the data say about its EC50? Entry: ETP-mAb72 (antibody, V domains shown, Rabbit monoclonal) VH: QSLEESGGGLVQPEGSLTLTCTASGFSFSRGDYVCWVRQAPGKGLEWIGWIDVGSVIESYYATWAKGRFTISKTSSTTVTLQMTSLTVADTATYFCARDLGFDTNLWGPGTLVTVSS VL: ELVMTQTPASVEAAVGGTVTINCQASESISIYLNWYQQKPGQPPKLLIYQASKLASGVPSRFKGSGSGTEFTLTISDLECADAATYYCQSHDYRIGRSDCNVFGGGTNVEIK
Response given: 0.306 µg/mL
